assayedSystem: human APJ receptor (Homo sapiens, UniProt P35414)
Construct: expressed in transfected cells
Sequence (P35414 1-380): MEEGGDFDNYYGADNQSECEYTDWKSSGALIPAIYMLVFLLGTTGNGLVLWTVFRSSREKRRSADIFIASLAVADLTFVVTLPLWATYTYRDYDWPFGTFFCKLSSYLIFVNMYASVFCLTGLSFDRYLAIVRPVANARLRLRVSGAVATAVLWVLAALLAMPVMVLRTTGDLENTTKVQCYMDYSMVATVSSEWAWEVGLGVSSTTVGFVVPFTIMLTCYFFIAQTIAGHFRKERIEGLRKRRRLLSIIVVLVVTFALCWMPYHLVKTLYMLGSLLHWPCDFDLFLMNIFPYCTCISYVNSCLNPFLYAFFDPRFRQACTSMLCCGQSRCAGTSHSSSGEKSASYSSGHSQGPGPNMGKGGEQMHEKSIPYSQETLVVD
experimentNotes: Intracellular cAMP accumulation assay (APJ hcAMP, HTRF)
Type: cell-based
settings: Table 1; HEK293 cells stably expressing human APJ receptor; inhibition of forskolin-mediated cAMP production; read-out: APJ hcAMP EC50
measure: EC50

{"compound": "CCC[C@@H](NC(=O)c1ccc(-c2cc(Cl)ccc2-c2nc3ccccc3[nH]2)c(C(=O)NO)c1)c1ccccc1", "measurement": "0.01 to 0.1 µM"}
{"compound": "CCCC(NC(=O)c1ccc(-c2c(Cl)cccc2-c2nc3ccccc3[nH]2)c(C(=O)O)c1)c1ccncc1 (single isomer, unassigned) [Example 168]", "measurement": "< 0.01 µM"}
{"compound": "CCCC(NC(=O)c1ccc(-c2c(Cl)cccc2-c2nc3ccccc3[nH]2)c(C(=O)O)c1)c1ccc(F)cc1 (single isomer, unassigned)", "measurement": "< 0.01 µM"}
{"compound": "CCCC(NC(=O)c1ccc(-c2cc(Cl)ccc2-c2nc3ccccc3[nH]2)c(C(=O)O)c1)c1ccc(F)cc1 (single isomer, unassigned) [Example 209]", "measurement": "< 0.01 µM"}
{"compound": "CCC[C@@H](NC(=O)c1ccc(-c2cc(Cl)ccc2-c2nc3cc4c(cc3[nH]2)OCO4)c(C(=O)O)c1)c1ccccc1", "measurement": "0.01 to 0.1 µM"}
{"compound": "CCC[C@@H](NC(=O)c1ccc(-c2ccc(Cl)cc2-c2nc3cc(OC)ccc3[nH]2)c(C(=O)O)c1)c1ccccc1", "measurement": "< 0.01 µM"}

###

assayedSystem: human APJ receptor (Homo sapiens)
Construct: expressed in transfected cells
experimentNotes: Intracellular cAMP accumulation assay (APJ hcAMP, HTRF)
Assay type: cell-based
settings: Table 1; HEK293 cells stably expressing human APJ receptor; inhibition of forskolin-mediated cAMP production; read-out: APJ hcAMP EC50
measure: EC50

{"compound": "CCC[C@@H](NC(=O)c1ccc(-c2cc(Cl)ccc2-c2nc3ccccc3[nH]2)c(C(=O)OC)c1)c1ccccc1 [Example 43]", "measure": "EC50", "measurement": "101 to 500 nM"}
{"compound": "CCC[C@@H](NC(=O)c1ccc(-c2c(Cl)cccc2-c2nc3cc(F)c(F)cc3[nH]2)c(C(=O)O)c1)C1CCCCC1 (atropisomer, axis not shown) [Example 162]", "measure": "EC50", "measurement": "< 10 nM"}
{"compound": "C[C@@H](NC(=O)c1ccc(-c2cc(Cl)ccc2-c2nc3ccccc3[nH]2)c(C(=O)O)c1)c1cccc2ccccc12 [Example 73]", "measure": "EC50", "measurement": "10 to 100 nM"}
{"compound": "C[C@@H](NC(=O)c1ccc(-c2cc(Cl)ccc2-c2nc3ccccc3[nH]2)c(C(=O)O)c1)c1cccc(Cl)c1 [Example 72]", "measure": "EC50", "measurement": "10 to 100 nM"}
{"compound": "CCC[C@@H](NC(=O)c1ccc(-c2c(Cl)cccc2-c2nc3cc(F)cc(F)c3[nH]2)c(C(=O)O)c1)c1ccccc1 (atropisomer, axis not shown) [Example 96]", "measure": "EC50", "measurement": "< 10 nM"}
{"compound": "CC(C)(O)C[C@@H](NC(=O)c1ccc(-c2c(Cl)cccc2-c2nc3ccccc3[nH]2)c(C(=O)O)c1)c1ccccc1 (atropisomer, axis not shown) [Example 151]", "measure": "EC50", "measurement": "< 10 nM"}
